meta.source: ChEMBL document CHEMBL5058564

# System: HEK-293T
# Test: Incucyte cell viability with HEK293T; also: unitless GR value; below 1 slowed growth and below 0 cell loss
# Assay type: toxicity, cell-based
# Condition Set: human, 24 h, 10 µM, compound concentration 10 uM, replicate number 1, timepoint 24 hours
// reported Growth Rate for each item listed

Cc1cccc(S(=O)(=O)N(C)[C@H](C)CCN2CCC(C)CC2)c1.Cl :: 0.69
CCS(=O)(=O)Nc1ccc(Oc2ccc(F)cc2F)c(-c2cn(C)c(=O)c3[nH]ccc23)c1 :: 0.4
CN[C@@H]1CCc2[nH]c3ccc(C(N)=O)cc3c2C1.O.O=C(O)CCC(=O)O [FROVATRIPTAN SUCCINATE] :: 0.98

Need Growth Rate, item CCNC(=O)[C@H]1O[C@@H](n2cnc3c(N)ncnc32)[C@H](O)[C@@H]1O.O
0.76

----------
# System: Fibroblast
# Test: Incucyte cell viability with human fibroblast; also: unitless GR value; below 1 slowed growth and below 0 cell loss
# Format: toxicity, cell-based
# Condition Set: 6 h, 10 µM, compound concentration 10 uM, replicate number 2, timepoint 6 hours
Observation Type: Growth Rate
No unit in the answer, only the number.

Consider the compound shown here: Cc1nnc2n1-c1sc(CCC(=O)N3CCOCC3)cc1C(c1ccccc1Cl)=NC2 What is its recorded Growth Rate?
0.74

----------
# Tested on: U2OS
# Test: Incucyte cell viability with U2OS; also: unitless GR value; below 1 slowed growth and below 0 cell loss
# Format: toxicity, cell-based
# Condition Set: human, 6 h, 10 µM, compound concentration 10 uM, replicate number 1, timepoint 6 hours
Where a SMILES comes first, the peptide text is derived from it. [ ]: non-standard residue; d: D form. Arg(Me) = CNC(=N)NCCC[C@H](N)C(=O)O; d3Pal = N[C@H](Cc1cccnc1)C(=O)O; azaGly = NNC(=O)O
Hi, to clarify the labels: met covers Growth Rate from 0.3 upward, not met covers anything below 0.3.

Cl.Cl.NCCc1c[nH]cn1 [HISTAMINE DIHYDROCHLORIDE] :: met
C[C@H]1[C@H](OC(=O)CCC(=O)O)O[C@@H]2O[C@@]3(C)CC[C@H]4[C@H](C)CC[C@@H]1[C@@]24OO3 [ARTESUNATE] :: met
Cc1sc2c(c1C)C(c1ccc(Cl)cc1)=N[C@H](CC(=O)OC(C)(C)C)c1nnc(C)n1-2 :: met
CNC(=N)NCCC[C@H](NC(=O)[C@H](CC(C)C)NC(=O)NNC(=O)[C@H](Cc1ccccc1)NC(=O)[C@H](CO)NC(=O)[C@H](CC(N)=O)NC(=O)[C@@H](Cc1cccnc1)NC(=O)[C@H](N)Cc1ccc(O)cc1)C(=O)NCC(N)=O [KISS1-543] (H-[dY][d3Pal]NSF[azaGly]L[Arg(Me)]G-NH2) :: met
COc1cc2nc(N(C)CCCNC(=O)C3CCCO3)nc(N)c2cc1OC.Cl (configuration not stated) [ALFUZOSIN HYDROCHLORIDE] :: not met
Nc1cnc(N2CCc3cc(S(=O)(=O)Nc4c(F)cc(Cl)cc4F)cc(N4CCCC4=O)c32)nc1 [TP-020n] :: met
Cc1cc(C)cc(C(=O)NOCCCCCC(=O)NO)c1 :: met
COc1cc2c(Oc3ccc(NC(=O)C4(C(=O)Nc5ccc(F)cc5)CC4)cc3F)ccnc2cc1OCCCN1CCOCC1 :: not met

Is Growth Rate for CN(C)[C@H]1CN(C2CCc3cccc(F)c32)C[C@@H]1c1ccc(N2CCN(S(C)(=O)=O)CC2)cc1 (some centres not stated) at or above 0.3?
met

Try this molecule too: CCOC(=O)Nc1cc(-c2ccc(C)c(NS(C)(=O)=O)c2)nn2c(C)nnc12
not met

Next molecule: CCCCCCCCc1ccc(CCC(N)(CO)CO)cc1
not met

Repeat with CC[S+]([O-])c1nc(-c2cccc(OCc3ccccc3)c2)cc(C(F)(F)F)n1 (configuration not stated)
not met
